What polymerase ribozyme fitness (log ratio) was measured for each of the following?
B1: TPR 5TU (parent)
chain: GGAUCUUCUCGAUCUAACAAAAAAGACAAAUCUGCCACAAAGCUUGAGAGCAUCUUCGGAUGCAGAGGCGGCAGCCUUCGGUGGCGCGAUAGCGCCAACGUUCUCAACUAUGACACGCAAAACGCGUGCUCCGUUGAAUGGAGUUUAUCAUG

Variants of: B1
experimentNotes: polymerase ribozyme fitness, log enrichment relative to wild type (log ratio); higher = more active; in vitro selection for triplet polymerase activity
This sample holds only a part of the variants without activity.

What value of measured polymerase ribozyme fitness (log ratio) is listed for A20C U55G G67U C72A C85U ? ≤ -4.2

What value of measured polymerase ribozyme fitness (log ratio) is listed for A24C A73G G86U C99G C149G ? ≤ -4.2

What value of measured polymerase ribozyme fitness (log ratio) is listed for U56G G59A G81U A89C G92U U139A ? ≤ -4.2

What value of measured polymerase ribozyme fitness (log ratio) is listed for C116U G141U ? 1.29

What value of measured polymerase ribozyme fitness (log ratio) is listed for A39U A49C U55A C87U C116G ? ≤ -4.2

What value of measured polymerase ribozyme fitness (log ratio) is listed for U6C A24U A28C C35U A37U U90G C93A C131U U145C ? ≤ -4.2

What value of measured polymerase ribozyme fitness (log ratio) is listed for C93G A107U ? -4.14

What value of measured polymerase ribozyme fitness (log ratio) is listed for A28U G67C U77A U90C C95U C105U A142G ? ≤ -4.2

What value of measured polymerase ribozyme fitness (log ratio) is listed for U13G G25A G83A ? -4.07

What value of measured polymerase ribozyme fitness (log ratio) is listed for U31G C35U C57U G117A ? -0.0701

What value of measured polymerase ribozyme fitness (log ratio) is listed for A40C G59A G71U G94C U127C ? ≤ -4.2
